Target: ABL1 (64-515) (Homo sapiens (Human))
Test: Radio ABL1 (64-515) assay (radiometric filter-binding)
Assay type: biochemical
experimental.endpoint: pIC50
Formally, pIC50 is defined as -log10 of the concentration c, with c in mol/L.

Worked examples, 5 compounds total:
> print(dat)
                         chemical.structure  recorded.result
1  CN(CCO)c1ncc(C(=O)Nc2ccc(OC(F)(F)F)cc2)cc1-c1cncc(C#N)c1             7.96
2  O=C(Nc1ccc(OC(F)(F)F)cc1)c1cnc(N2CC[C@@H](O)C2)c(-c2cnccc2F)c1             8.38
3  O=C(Nc1ccc(OC(F)(F)F)cc1)c1cnc(N2CC[C@H](CO)C2)c(-c2ccc(Cl)nc2)c1             8.40
4  N[C@@H]1CCCN(c2ncc(C(=O)Nc3ccc(OC(F)(F)Cl)cc3)cc2-c2cncnc2)C1             8.68
5  NC(=O)C1CCN(c2ncc(C(=O)Nc3ccc(OC(F)(F)F)cc3)cc2-c2cncnc2)CC1             7.89

Consider the compound shown here: N#Cc1cncc(-c2cc(C(=O)Nc3ccc(SC(F)(F)F)cc3)cnc2N2CC[C@H](CO)C2)c1 What is its recorded pIC50?
8.10

====

Target: ABL1 (64-515) (Homo sapiens (Human))
Assay: Radio ABL1 (64-515) assay (radiometric filter-binding)
Format: biochemical
experimental.endpoint: pIC50
Formally, pIC50 is defined as -log10 of the concentration c, with c in mol/L.

> print(dat)
                                   compound                         system.tested  recorded.result
1  O=C(Nc1ccc(OC(F)(F)F)cc1)c1cnc(N2Cc3cn[nH]c3C2)c(-c2cncnc2)c1 [Example 228]  ABL1 (64-515) (Homo sapiens (Human))             9.00

Next up:
Consider the compound shown here: O=C(Nc1ccc(OC(F)(F)F)cc1)c1cnc(N2CCC(O)C2)c(-c2ccncc2)c1 (stereo not shown) [Example 31] What is its recorded pIC50?
8.15

====

Biological target: ABL1 (64-515) (Homo sapiens (Human))
Experiment: Radio ABL1 (64-515) assay (radiometric filter-binding)
Assay type: biochemical
Below, each entry is listed with its recorded IC50.
Lab book: enter the figure in nM, no units written.

> print(dat)
                                   molecule  experimental.endpoint  recorded.result
1  NC1CN(c2ncc(C(=O)Nc3ccc(OC(F)(F)Cl)cc3)cc2-c2cncnc2)C1 [Example 259]                   IC50              5.1
2  CCN(CCO)c1ncc(C(=O)Nc2ccc(SC(F)(F)F)cc2)cc1-c1cncc(F)c1 [Example 196]                   IC50              5.1
3  CN(C)C1CN(c2ncc(C(=O)Nc3ccc(OC(F)(F)F)cc3)cc2-c2cncc(F)c2)C1 [Example 239]                   IC50                4

Next up:
Consider the molecule shown here: O=C(Nc1ccc(OC(F)(F)F)cc1)c1cnc(N2C[C@@H](O)[C@@H](O)C2)c(-c2cncc(F)c2)c1 [Example 235] What is its recorded IC50?
2

====

Biological target: ABL1 (64-515) (Homo sapiens (Human), UniProt P00519)
Sequence (P00519 64-515): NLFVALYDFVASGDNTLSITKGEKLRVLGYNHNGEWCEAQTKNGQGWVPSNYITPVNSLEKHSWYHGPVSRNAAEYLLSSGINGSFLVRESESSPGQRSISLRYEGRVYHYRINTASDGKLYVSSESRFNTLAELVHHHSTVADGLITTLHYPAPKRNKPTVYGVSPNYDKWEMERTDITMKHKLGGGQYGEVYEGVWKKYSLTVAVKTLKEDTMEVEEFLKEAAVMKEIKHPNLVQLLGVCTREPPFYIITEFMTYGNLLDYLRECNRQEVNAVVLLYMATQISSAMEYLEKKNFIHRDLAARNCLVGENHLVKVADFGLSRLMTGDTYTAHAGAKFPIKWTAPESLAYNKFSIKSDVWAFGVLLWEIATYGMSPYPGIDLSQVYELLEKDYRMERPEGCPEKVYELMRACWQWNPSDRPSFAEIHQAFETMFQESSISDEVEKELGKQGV
Test: Radio ABL1 (64-515) assay (radiometric filter-binding)
Assay type: biochemical
pIC50: −log10 of the molar value.
Below, each entry is listed with its recorded pIC50.

Worked examples, 2 compounds total:
> print(dat)
                                   compound  recorded.result
1  O=C(Nc1ccc(OC(F)(F)F)cc1)c1ccc(N2C[C@H](O)[C@@H](O)C2)c(-c2cncnc2)c1           > 8.52
2  O=C(Nc1ccc(C(F)(F)C(F)(F)F)cc1)c1cnc(N2CC[C@@H](O)C2)c(-c2cncc(F)c2)c1           > 8.52

Next up:
Consider the compound shown here: CC(=O)NC1CCN(c2ncc(C(=O)Nc3ccc(OC(F)(F)F)cc3)cc2-c2cncnc2)C1 (stereo not drawn) What is its recorded pIC50?
> 8.52

====

Biological target: ABL1 (64-515) (Homo sapiens (Human), UniProt P00519)
Assay: Caliper ABL1 (64-515) assay (microfluidic mobility shift)
Format: biochemical
Label scheme for IC50: bucket 1: < 0.8 nM; bucket 2: ≥ 0.8 nM and < 2 nM; bucket 3: ≥ 2 nM

The following compounds have reported results that may help.
> print(dat)
                                   compound  discrete.label
1  CN(CCO)c1ncc(C(=O)Nc2ccc(OC(F)(F)F)cc2)cc1-c1cncnc1        bucket 1
2  O=C(Nc1ccc(OC(F)(F)Cl)cc1)c1cnc(N2CCNC3(CC3)C2)c(-c2cncnc2)c1        bucket 1
3  CN(C)C1CN(c2ncc(C(=O)Nc3ccc(OC(F)(F)F)cc3)cc2-c2cncnc2)C1        bucket 3
4  O=C(Nc1ccc(OC(F)(F)F)cc1)c1cnc(N2CC(O)C2)c(-c2cncnc2)c1        bucket 2
5  O=C(Nc1ccc(OC(F)(F)Cl)cc1)c1cnc(N2CC(O)C2)c(-c2cncnc2)c1        bucket 2

Could you tell me which band N[C@H]1CN(c2ccc(C(=O)Nc3ccc(OC(F)(F)Cl)cc3)cc2-c2cncnc2)C[C@@H]1O belongs to?
bucket 2

Could you tell me which band Cc1ncncc1-c1cc(C(=O)Nc2ccc(OC(F)(F)Cl)cc2)ccc1N1C[C@H](O)[C@@H](O)C1 belongs to?
bucket 2

Could you tell me which band O=C(Nc1ccc(OC(F)(F)F)cc1)c1ccc(N2C[C@H](O)[C@@H](O)C2)c(-c2cncnc2)c1 belongs to?
bucket 2

Could you tell me which band CC(=O)NC[C@H]1CCN(c2ncc(C(=O)Nc3ccc(OC(F)(F)Cl)cc3)cc2-c2cncnc2)C1 belongs to?
bucket 1

Could you tell me which band Cc1ccc(-c2cc(C(=O)Nc3ccc(OC(F)(F)F)cc3)cnc2N2CC[C@H](CO)C2)cn1 belongs to?
bucket 1

Could you tell me which band Nc1ncc(-c2cc(C(=O)Nc3ccc(OC(F)(F)F)cc3)cnc2N2CC[C@@H](O)C2)cc1F belongs to?
bucket 2

Could you tell me which band N[C@@H]1[C@H]2CN(c3ncc(C(=O)Nc4ccc(OC(F)(F)Cl)cc4)cc3-c3cncnc3)C[C@@H]12 belongs to?
bucket 1

Could you tell me which band CC(C)(O)c1cc(F)cc(-c2cc(C(=O)Nc3ccc(OC(F)(F)F)cc3)cnc2N2CC[C@@H](O)C2)c1 belongs to?
bucket 3

Could you tell me which band O=C(Nc1ccc(OC(F)(F)F)cc1)c1cnc(N2CCCOCC2)c(-c2cncnc2)c1 belongs to?
bucket 3

Could you tell me which band O=C(Nc1ccc(OC(F)(F)Cl)cc1)c1cnc(N2CC[C@@H](O)C2)c(-c2cnccc2F)c1 belongs to?
bucket 1

Could you tell me which band O=C(Nc1ccc(OC(F)(F)F)cc1)c1cnc(N2C[C@@H](O)[C@@H](O)C2)c(-c2cncc(F)c2)c1 belongs to?
bucket 2

====

Molecular target: ABL1 (64-515) (Homo sapiens (Human))
Experiment: Caliper ABL1 (64-515) assay (microfluidic mobility shift)
Assay type: biochemical
Below, each entry is listed with its recorded pIC50.
Formally, pIC50 is defined as -log10 of the concentration c, with c in mol/L.

> print(dat)
                                   compound  recorded.result
1  Cc1ccc(-c2cc(C(=O)Nc3ccc(OC(F)(F)F)cc3)cnc2N2CC[C@H](O)C2)cn1 [Example 34]             9.10

Consider the compound shown here: O=C(Nc1ccc(OC(F)(F)Cl)cc1)c1ccc(N2C[C@H](O)[C@@H](O)C2)c(-c2cncnc2)c1 [Example 244] What is its recorded pIC50?
9.22

Consider the compound shown here: CC1(O)CN(c2ncc(C(=O)Nc3ccc(OC(F)(F)F)cc3)cc2-c2cncc(F)c2)C1 [Example 132] What is its recorded pIC50?
8.82

Consider the compound shown here: N[C@H]1CN(c2ccc(C(=O)Nc3ccc(OC(F)(F)Cl)cc3)cc2-c2cncc(F)c2)C[C@@H]1O [Example 285] What is its recorded pIC50?
9.22

Consider the compound shown here: O=C(Nc1ccc(OC(F)(F)Cl)cc1)c1cnc(N2Cc3cn[nH]c3C2)c(-c2cncnc2)c1 [Example 254] What is its recorded pIC50?
9.22

Consider the compound shown here: N#Cc1ccncc1-c1cc(C(=O)Nc2ccc(OC(F)(F)Cl)cc2)cnc1N1C[C@H](O)[C@@H](O)C1 [Example 290] What is its recorded pIC50?
9.10

====

Target: ABL1 (64-515) (Homo sapiens (Human))
Experiment: Caliper ABL1 (64-515) assay (microfluidic mobility shift)
Assay type: biochemical
Below, each entry is listed with its recorded IC50.

Worked examples, 2 compounds total:
> print(dat)
                                   compound  recorded.result
1  O=C(Nc1ccc(SC(F)(F)F)c(F)c1)c1cnc(N2CC[C@@H](O)C2)c(-c2cncnc2)c1 [Example 205]        < 0.13 nM
2  Cc1ncncc1-c1cc(C(=O)Nc2ccc(OC(F)(F)Cl)cc2)cnc1N1CC[C@@H](O)C1 [Example 263]        < 0.13 nM

Consider the compound shown here: CCN(CCO)c1ncc(C(=O)Nc2ccc(SC(F)(F)F)cc2)cc1-c1cncnc1 [Example 195] What is its recorded IC50?
< 0.13 nM
